Recorded values, source PubChem BioAssay.

test-summary: modulators of S6 phosphorylation in cells, primary screen, cell-based, A549, cytoblot, luminescence, serum-stimulated (AID 1158);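 further: serum-stimulated A549 lung adenocarcinoma cells; signal is phosphorylated S6 detected by cytoblot immunostaining with HRP secondary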
condition-notes: A549 phospho-S6 cytoblot, 5 h, higher = more signal
# z-score per entry
parameter-measured: z-score

[[record]]
compound_string = "C=C(C(=O)CC[C@@H](OC(=O)c1ccccc1-c1ccccc1C(=O)O)c1ccc(OCCO)cc1)C(C)C"
parameter_measured = "z-score"
readout_number = -0.26

[[record]]
compound_string = "COC(=O)C(CC#Cc1ccc2c(c1)[C@]1(C(=O)N2)[C@H](C(=O)N2CCN(c3ncccn3)CC2)[C@H]2C(=O)O[C@H](c3ccccc3)[C@H](c3ccccc3)N2[C@@H]1c1ccc(O)cc1)C(=O)OC"
parameter_measured = "z-score"
readout_number = -0.339

[[record]]
compound_string = "COc1ccc([Si](C)(C)[C@H]2[C@H](CC(=O)N(CCO)Cc3ccccc3)O[C@@]3(C(=O)N(Cc4cccc(N5CCCCC5=O)c4)c4ccccc43)[C@@H]2C)cc1"
parameter_measured = "z-score"
readout_number = 2.6

[[record]]
compound_string = "CC(C)(C)OC(=O)CC[C@]1(C(=O)N2CCOCC2)COC(c2ccc(OCCCO)cc2)=N1"
parameter_measured = "z-score"
readout_number = 0.359

[[record]]
compound_string = "C=CCNC(=O)[C@@H]1[C@H]2C(=O)O[C@H](c3ccccc3)[C@H](c3ccccc3)N2[C@H](c2ccc(OCCO)cc2)[C@@]12C(=O)N(C(=O)OCCOC)c1ccccc12"
parameter_measured = "z-score"
readout_number = -0.296

[[record]]
compound_string = "COc1cccc(C)c1NC(=O)O[C@H]1[C@H](OC(=O)Nc2ccc3c(c2)OCO3)[C@H](OC(=O)Nc2ccc3c(c2)OCO3)[C@@H](OC)O[C@@H]1CO"
parameter_measured = "z-score"
readout_number = -0.0632


====

test-summary: cell viability in Huh7 cells, primary screen, cytotoxicity control for HCV replication inhibitor project, CellTiter-Glo luminescence, basal, 48 h (AID 1143);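 further: Huh7 hepatoma cells carrying a hepatitis C replication reporter with no stimulus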
condition-notes: Huh7 HCV replicon, higher = more signal, called active from +8 up or from −8 down
Calls of active or inactive are those of the source.
# z-score per entry
parameter-measured: z-score

[[record]]
compound = "O=C(O)C1=CC[C@H]2C(=O)N(c3ccccc3)C(=O)[C@@H]12"
result = "0.704 (inactive)"

[[record]]
compound = "C=CC[C@]1(C(=O)NCC(O)CO)N=C(c2ccc(OCCCO)cc2)O[C@H]1c1ccccc1CN=[N+]=[N-] (some centres undefined)"
result = "-0.627 (inactive)"

[[record]]
compound = "C=C(C(=O)CC[C@@H](OC(=O)c1ccccc1-c1ccccc1C(=O)O)c1cccc(OCCO)c1)C(C)C"
result = "0.954 (inactive)"

[[record]]
compound = "CCCCN1CC=CC23O[C@@H]4/C=C\\CCC(C)OC(=O)C4[C@H]2C(=O)N(CCO)[C@@H]3C1=O (some centres undefined)"
result = "-1.08 (inactive)"


====

Test system: Neuregulin-1 EGF-like domain
test-summary: binders of neuregulin-1 EGF-like domain, primary screen, biochemical, small-molecule microarray, 635 nm fluorescence (AID 1081);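 further: binding of the protein to compounds printed on small-molecule microarray slides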
condition-notes: small-molecule microarray binding, higher = more signal
parameter-measured: composite z-score

[[record]]
compound = "CN1C(=O)C2C=CC(C(O)c3ccc([N+](=O)[O-])cc3)N(Nc3ccccc3)C2C1=O (stereo unspecified)"
readout_number = 1.16

[[record]]
compound = "C=C(C(=O)CC[C@@H](OC(=O)c1ccccc1-c1ccccc1C(=O)O)c1ccc(CO)o1)C(C)C"
readout_number = 0.445

[[record]]
compound = "C=C(C(=O)CC[C@H](OC(=O)c1ccccc1-c1ccccc1C(=O)O)c1ccc(OCCO)cc1)C(C)C"
readout_number = 1.26

[[record]]
compound = "CO[C@H]1O[C@H](CO)[C@@H](OC(=O)Nc2cccc(F)c2)[C@H](OC(=O)Nc2ccc3c(c2)OCO3)[C@@H]1OC(=O)Nc1ccc2c(c1)OCO2"
readout_number = 1.27

[[record]]
compound = "COCCOC(=O)N1C(=O)[C@@]2(c3cc(C#CC4=CCCCC4)ccc31)[C@H](C(=O)N1CCCCCCC1)[C@H]1C(=O)O[C@H](c3ccccc3)[C@H](c3ccccc3)N1[C@@H]2c1ccccc1OCCO"
readout_number = 1.18

[[record]]
compound = "CC(C)C(=C=CC[C@H](O)c1cccc(OCCO)c1)C[C@H](O)c1ccccn1"
readout_number = 1.05

[[record]]
compound = "C=CC[C@]12N=C(c3ccc(OCCCO)cc3)O[C@H]1c1ccccc1N(CCC)C2=O"
readout_number = 1.35

[[record]]
compound = "COc1cc(Cc2cc3c(c(-c4ccccc4)n2)[Si](C(C)C)(C(C)C)OC3)cc(OC)c1OC"
readout_number = -0.683

[[record]]
compound = "O=C(O)C1=CC[C@H]2C(=O)N(c3ccccc3)C(=O)[C@@H]12"
readout_number = 1.16

[[record]]
compound = "COCCCNC(=O)[C@@]1(CCC(=O)OC(C)(C)C)N=C(c2ccc(OCCCO)cc2)O[C@H]1c1ccccc1"
readout_number = 1.3

[[record]]
compound = "CCCCN1CC=CC23O[C@@H]4C=CCCOC(=O)C4[C@H]2C(=O)N(CCO)[C@@H]3C1=O (stereo partly specified)"
readout_number = -0.397

[[record]]
compound = "CC1C2C(CCCO)=CC(C3C(=O)N(C(N)=O)C(=O)C23)N1Cc1cccc(OC(F)(F)F)c1 (stereo unspecified)"
readout_number = 1.28

[[record]]
compound = "C=CCNC(=O)[C@H]1[C@@H]2C(=O)O[C@@H](c3ccccc3)[C@@H](c3ccccc3)N2[C@@H](c2ccc(OCCO)cc2)[C@]12C(=O)Nc1ccc(C#Cc3ccc(OC)cc3)cc12"
readout_number = 1.22

[[record]]
compound = "C[C@]12C(=O)N(CCO)[C@@H]3C(=O)N(c4ccc(Cl)cc4)CC=CC31O[C@@H]1/C=C\\CCCOC(=O)C12 (stereo partly specified)"
readout_number = 0.0495

[[record]]
compound = "C=C[C@H](OC)[C@@H](O)c1ccc(OC)c(O)c1"
readout_number = -0.673

[[record]]
compound = "CC(C)c1ccc(NN2C(C(O)C3CCCCC3)C=CC3C(=O)N(c4ccccc4)C(=O)C32)cc1 (stereo unspecified)"
readout_number = 1


====

# composite z-score per entry
Test system: XIP peptide (Xip251-270) binding
test-summary: small-molecule binders of XIP peptide, primary screen, biochemical, small-molecule microarray, fluorescence 635/667 nm, 0.1 µg/mL protein (AID 1182)
condition-notes: fluorescent protein binding, 635 nm, higher = more signal, called active from +8 up or from −8 down
The source made the active and inactive calls.
parameter-measured: composite z-score

[[record]]
molecule = "CC(C)C[C@@H]1NC(=O)[C@@H]2C[C@H](C(=O)NCCCCCNC(=O)CS)[C@H](c3ccc(O)cc3)N2C1=O"
tgt = "XIP peptide (Xip251-270) binding"
result = "0.741 (inactive)"

[[record]]
molecule = "CCOC(=O)C1=CCC(c2ccncc2)N(S(=O)(=O)c2ccc(C)cc2)C1 (stereo not drawn)"
tgt = "XIP peptide (Xip251-270) binding"
result = "0.373 (inactive)"

[[record]]
molecule = "COc1cc(Cc2cc3c(c(CCc4ccccc4)n2)[Si](C(C)C)(C(C)C)O[C@H]3c2ccccc2)cc(OC)c1OC"
tgt = "XIP peptide (Xip251-270) binding"
result = "0.41 (inactive)"

[[record]]
molecule = "COC(=O)[C@@]1(Cc2ccc(F)cc2)[C@H]2c3cc(C(=O)N(C)C)n(Cc4ccsc4Br)c3C[C@H]2CN1C(=O)c1ccccc1"
tgt = "XIP peptide (Xip251-270) binding"
result = "1.29 (inactive)"

[[record]]
molecule = "CN(C)CCCCCCNC(=O)[C@@H]1C[C@@H]2C(=O)N[C@@H](CCCC[N+](C)(C)C)C(=O)N2[C@@H]1c1cccc(OCCO)c1"
tgt = "XIP peptide (Xip251-270) binding"
result = "0.877 (inactive)"

[[record]]
molecule = "C=CC[C@H](O)c1ccc(O)c(F)c1"
tgt = "XIP peptide (Xip251-270) binding"
result = "-0.51 (inactive)"

[[record]]
molecule = "C=C(C(=O)CC[C@@H](OC(=O)c1ccccc1-c1ccccc1C(=O)O)c1ccc(OCCO)cc1)C(C)C"
tgt = "XIP peptide (Xip251-270) binding"
result = "-0.206 (inactive)"

[[record]]
molecule = "CCOC(=O)C[C@H]1[C@H](OC(=O)c2cc3ccccc3oc2=O)[C@@H](NC(=O)Cc2ccc(OC)cc2)c2cc(OCCCO)ccc2N1C(=O)Cc1ccc(OC)cc1"
tgt = "XIP peptide (Xip251-270) binding"
result = "-0.0664 (inactive)"


====

test-summary: E. coli growth modulation, two-sided OD650, primary screen, E. coli filamentation project, strain DRC41, 24 h (AID 1093);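 further: MC1000 strain lacking acrAB efflux and sulA so SOS filamentation is blocked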
condition-notes: OD650, 24 h, higher = more signal, called active from +8 up or from −8 down
parameter-measured: z-score

[[record]]
molecule = "COC(=O)[C@@]1(Cc2ccc(F)cc2)[C@H]2c3cc(C(=O)N4CCCC4)n(Cc4ccc(C(F)(F)F)nc4)c3C[C@H]2CN1C(=O)c1ccccc1"
parameter_measured = "z-score"
readout_number = -0.293

[[record]]
molecule = "COCCOC(=O)N1C(=O)[C@@]2(c3cc(C#CC4(O)CCCCCC4)ccc31)[C@H](C(N)=O)[C@H]1C(=O)O[C@H](c3ccccc3)[C@H](c3ccccc3)N1[C@@H]2c1ccc(OCCO)cc1"
parameter_measured = "z-score"
readout_number = 0.662

[[record]]
molecule = "COc1cc2c(cc1O)C(C)N(Cc1sc3ccccc3c1Cl)CC2 (stereo not given)"
parameter_measured = "z-score"
readout_number = 0.566

[[record]]
molecule = "CCOC(=O)C[C@H]1[C@H](OC(=O)Cc2ccc3c(c2)OCO3)[C@@H](NC(=O)CC(C)C)c2cc(OCCCO)ccc2N1C(=O)c1ccc2ccccc2n1"
parameter_measured = "z-score"
readout_number = 0.431

[[record]]
molecule = "COC(=O)[C@@]1(Cc2ccc(F)cc2)[C@H]2c3cc(C(=O)N4CCCC4)n(CCSCCO)c3C[C@H]2CN1C(=O)c1ccccc1"
parameter_measured = "z-score"
readout_number = -0.0319

[[record]]
molecule = "O=C1O[C@@H](c2ccccc2)[C@@H](c2ccccc2)N2[C@@H](c3ccc(OCCO)cc3)[C@]3(C(=O)Nc4ccc(C#CC5=CCCCC5)cc43)[C@@H](C(=O)Nc3nc4ccccc4s3)[C@H]12"
parameter_measured = "z-score"
readout_number = -0.124

[[record]]
molecule = "C=CC[C@H](OC(=O)Nc1ccc(SC)cc1)c1ccc(O)c(F)c1"
parameter_measured = "z-score"
readout_number = 0.622

[[record]]
molecule = "COCCOC(=O)N1C(=O)[C@@]2(c3cc(C#CCCO)ccc31)[C@H](c1ccc(O)cc1)N1[C@H](c3ccccc3)[C@H](c3ccccc3)OC(=O)[C@H]1[C@@H]2C(=O)NC[C@H](O)c1ccccc1"
parameter_measured = "z-score"
readout_number = 1.76

[[record]]
molecule = "COc1ccc([Si](C)(C)[C@H]2[C@H](CC(=O)N3CCC[C@H]3CO)O[C@@]3(C(=O)N(C)c4c(Br)cc(C)cc43)[C@@H]2C)cc1"
parameter_measured = "z-score"
readout_number = -0.2

[[record]]
molecule = "C[C@]1(C(=O)NC2CC2)c2ccccc2C(=O)N(Cc2cc(F)cc(C(F)(F)F)c2)[C@H]1c1ccc(CO)cc1"
parameter_measured = "z-score"
readout_number = 0.299

[[record]]
molecule = "CC(C)c1ccc(NN2C(C(O)C(C)c3ccccc3)C=CC3C(=O)N(c4ccccc4)C(=O)C32)cc1 (stereo not given)"
parameter_measured = "z-score"
readout_number = -1.28

[[record]]
molecule = "CC(C)C[C@@H]1NC(=O)[C@@H]2C[C@H](C(=O)NCCCCCNC(=O)CS)[C@H](c3ccc(O)cc3)N2C1=O"
parameter_measured = "z-score"
readout_number = 1.52

[[record]]
molecule = "COC(=O)[C@]1(Cc2ccccc2CN=[N+]=[N-])N=C(c2ccc(OCCCO)cc2)O[C@@H]1c1ccccc1N=[N+]=[N-]"
parameter_measured = "z-score"
readout_number = 1.08

[[record]]
molecule = "CCCCC(=C=CC[C@@H](O)c1ccccc1OCCO)C[C@@H](O)c1ccccn1"
parameter_measured = "z-score"
readout_number = 0.0399

[[record]]
molecule = "O=C1C2C=CC(C(O)C3CC=CCC3)N(Nc3ccc([N+](=O)[O-])cc3)C2C(=O)N1c1ccccc1 (stereo not given)"
parameter_measured = "z-score"
readout_number = 0.0043

